Recorded values, source PubChem BioAssay (EPA / NIEHS).

# assay comment: CCTE_Shafer_MEA_dev_per_network_spike_spike_number_mean: CCTE's Neural Network Formation Assay for Mean Number of Spikes in a Network Spike, Shafer Lab (AID 2284053);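 note: fitted as decrease in spikes per network spike relative to DMSO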
The source made the active and inactive calls. Rule for the calls: active = hit-call score of the fitted dose curve at least 0.9, where 1 is the maximum; inactive = score below 0.9.
property measured: AC50

compound	result
Cc1ccc(-c2c(Cl)nc(C#N)n2S(=O)(=O)N(C)C)cc1	14.4 µM (active)
Cc1c(F)c(F)c(COC(=O)C2C(/C=C(\Cl)C(F)(F)F)C2(C)C)c(F)c1F (centres undefined)	1.98 µM (active)
CCCCNC(=O)n1c(NC(=O)OC)nc2ccccc21	15 µM (active)
CC(C)(C)c1ccc(CSc2cnn(C(C)(C)C)c(=O)c2Cl)cc1	0.00169 µM (active)

###

# Read-out: Tissue plasminogen activator (tPA), PLAT (gene 5327)
# assay comment: BSK_BE3C_tPA: BioMAP Diversity Plus: BE3C Assay for Tissue plasminogen activator (tPA) Biomarker Activity (AID 2283041)
# setup conditions: primary human bronchial epithelial cells; actives raise or lower the signal
Calls of active or inactive are those of the source. How the source made its calls: active means hit-call score of the fitted dose curve at least 0.9, where 1 is the maximum; inactive means score below 0.9.
Outcomes: active, inactive

compound	group
Cc1ccc(-c2c(Cl)nc(C#N)n2S(=O)(=O)N(C)C)cc1	inactive
CCNc1nc(Cl)nc(NCC)n1	inactive
CCc1nn(C)c(C(=O)NCc2ccc(C(C)(C)C)cc2)c1Cl	active
Oc1ccccc1-c1ccccc1	inactive
CS/C(C)=N/OC(=O)N(C)SN(C)C(=O)O/N=C(\C)SC	inactive
COc1cnc(OC)n2nc(NS(=O)(=O)c3c(OCC(F)F)cccc3C(F)(F)F)nc12	inactive
C=CCC1=C(C)C(OC(=O)C2C(C=C(C)C)C2(C)C)CC1=O (centres undefined)	inactive
CCCC1COC(Cn2cncn2)(c2ccc(Cl)cc2Cl)O1 (centres undefined)	inactive
CN(C)C(=S)SSC(=S)N(C)C	active
COP(=S)(OC)Oc1nc(Cl)c(Cl)cc1Cl	inactive
OC(c1ccc(Cl)cc1)(c1cncnc1)c1ccccc1Cl (centres undefined)	inactive
CC(C)(C)c1ccc(CSc2cnn(C(C)(C)C)c(=O)c2Cl)cc1	inactive
N#Cc1nn(-c2c(Cl)cc(C(F)(F)F)cc2Cl)c(N)c1S(=O)C(F)(F)F (centres undefined)	inactive
COP(N)(=O)SC (centres undefined)	inactive
CCCCC(CC)COC(=O)c1ccccc1C(=O)OCC(CC)CCCC (centres undefined)	inactive
CCOc1cc(Oc2ccc(C(F)(F)F)cc2Cl)ccc1[N+](=O)[O-]	inactive
COc1nc(NC(C)C)nc(NC(C)C)n1	inactive
CCOP(=S)(OCC)SCn1c(=O)oc2cc(Cl)ccc21	inactive
CCCN(CCC)c1c([N+](=O)[O-])cc(S(N)(=O)=O)cc1[N+](=O)[O-]	active
COC(=O)N(OC)c1ccccc1COc1ccn(-c2ccc(Cl)cc2)n1	inactive
COc1nc(C)nc(NC(=O)NS(=O)(=O)c2ccccc2Cl)n1	inactive
CC(Oc1ccc(Cl)cc1Cl)C(=O)O (centres undefined)	inactive
CON(C)C(=O)Nc1ccc(Cl)c(Cl)c1	inactive
CCNc1nc(Cl)nc(NC(C)C)n1	inactive
C=CC1(C)OC(=O)N(c2cc(Cl)cc(Cl)c2)C1=O (centres undefined)	inactive
CC1=C(C(=O)Nc2ccccc2)SCCO1	inactive
CCOC(=O)C(Cl)Cc1cc(-n2nc(C)n(C(F)F)c2=O)c(F)cc1Cl (centres undefined)	inactive
CC1COC(Cn2cncn2)(c2ccc(Oc3ccc(Cl)cc3)cc2Cl)O1 (centres undefined)	active
Cc1c(F)c(F)c(COC(=O)C2C(/C=C(\Cl)C(F)(F)F)C2(C)C)c(F)c1F (centres undefined)	inactive
